# test-method-notes: yeast display, Sf9 membrane polyspecificity reagent, FACS + sequencing; frameworks hold sequencing errors
readout-type: polyreactivity (PSR sort gate)

Study these solved cases before continuing.
biopolymer_sequence=QVQLVESGGGLVQAGGSLRLSCAASGRPFYVYAMGWYRQAPGKERELVASIRRSGGITYYADSVKGRFTISRDNAKNTVYLQMNSLKPEDTAVYYCNARRGPGRREYDYWGQGTQVTVSS value="high polyreactivity"
biopolymer_sequence=QVQLVESGGGLVQAGGSLRLSCAASGRIFAWYAMGWYRQAPGKEREFVAAISRGGSTYYADSVKGRFTISRDNAKNTVYLQMNSLKPEDTAVYYCAASSPSSGRFDYWGQGTQVTVSS value="high polyreactivity"
biopolymer_sequence=QVQLVESGGGLVQAGGSLRLSCVASGFNFRGNAMGLYRQAPGKERELVATISSGGNTYYADSVKGRFTISRDNAKNTVYLQMNSLKPEDTAVYYCNASDGLPTKLNVYVEFDYWGQGTQVTVSS value="low polyreactivity"
biopolymer_sequence=QVQIVESGGGLFQAGGSRRLSCAASGVMFSYYAMGWYRQAPGKDRELVAAISRRVGSTYYADSVKGRFTISRDNAKNTVYLQMNSLITQVTAVYYWNAYLYSRYEFDYWVQGTQVTVSS value="high polyreactivity"

Query block: Given the sequence `QVQLVESGAGLVQAGGSLRLSCAASGRTFSAYAMGWYRQAPGKERELVAAITLSVGSTYYADSVKGRFTISRDNAKTTVYLQMNSLKPEDTAVYYCNKYKKGEGGITIVRFDYWGQGTQVTVSS` , what is its reported polyreactivity (PSR sort gate)?
Result block: low polyreactivity

Query block: Dear colleague, I am looking for the recorded polyreactivity (PSR sort gate) of the following sequence: `QVQLVESGGGLVQAGGSLRLSCAASGSIFRIYAMGWYRQAPGKERELVAGISKSGGSTYYADSVKGRFTISRDNAKNTVYLQMNSLKPEDTAVYYCAAGYYYFWTYDYWGQGTQVTVSS`
Result block: low polyreactivity

Query block: Would you kindly share the measured polyreactivity (PSR sort gate) for `QVQHVESRGGLVQAGGSLRLSCAASGSIFGYYGMGWYRQAPGKERELVATITSGGSTNYADSVKGRFTISRDNAKNTVYLQMNSLKPEDTAVYYCARQYGYQPERYGYWGQGTQVTVSS` ?
Result block: low polyreactivity

Query block: Would you kindly share the measured polyreactivity (PSR sort gate) for `QVQLVESGGGLVQAGGSLRLSCAASGRIFRTNAMGWYRQAHGKEWELVAAITRGGTTNYADSVKGRFTISRDNAKNTVYLQMNSLKPEDTAVYYCAVDQGYVVRLAWIYGYWGQGTQVTVSS` ?
Result block: low polyreactivity

====

# test-method-notes: yeast display, Sf9 membrane polyspecificity reagent, FACS + sequencing; frameworks hold sequencing errors
readout-type: polyreactivity (PSR sort gate)

biopolymer_sequence=QVQLVESGGGLDQAGGCLRLSCAASGSIFRTYAMGWYRQAPGKERELVADITRRGGSTYYADSVKGRFTISRDNAKYTVNLQLNSLKPEETAVYYCAAYGYTSAGDSARLDYWGQGSQVTVSS readout_type="polyreactivity (PSR sort gate)" value="high polyreactivity"
biopolymer_sequence=QVQLVESGGGLVQAGGSLRLSCAASGRTFRSNVMRWYRQAPGKERELVASITWSGGTTYYADSVKGRFTISRDNAKNTVYLQMNSLKPEDTAVYYCNAADERSQGWVGYDHWGQCTQVTVSS readout_type="polyreactivity (PSR sort gate)" value="low polyreactivity"
biopolymer_sequence=QVQLVESGGGLVQAGGSLRLSCAASGLTFLYYAMGWYRQAPGKERELVASISRGSNTNYADSVKGRFTISRDNAKNTVYLQMNSLKPEDTAVYYCAVDRRPYSGHGYDYWGQGTQVTVSS readout_type="polyreactivity (PSR sort gate)" value="high polyreactivity"
biopolymer_sequence=QVQLVESGGGLVQAGGSLRLSCAASGSTFYYYAMGWYRQAPGKEREFVAAISWRGGSTYYADSVKGRFTISRDNAKNTVYLQMNSLKPEDTAVYYCAATTLYRGVYYRIFGWGYERGHWGQGTQVTVSS readout_type="polyreactivity (PSR sort gate)" value="low polyreactivity"
biopolymer_sequence=QVQLVESGGGLVQGGGSLRLSCDASGLTFPSNAMRWYRQATAKERELVASINRRGTSTFYADSVKGRFTISRDNAKNTFYLQMNSMKPEDTAVYYCNAYEGAAIRSTGRYDYWGHGTQVTVSS readout_type="polyreactivity (PSR sort gate)" value="low polyreactivity"

--- query ---
Query block: Which polyreactivity (PSR sort gate) value belongs to `QVQLVESGGGLVQAGGSLRLSCAASGSIFSSYTMGWYRQAPGKERELVASITSGDSTNYADSVKGRFTISRDNAKNTVYLQMNSLKPEDTAVYYCNKSTLGVPVYEVIFEYWGQGTQVTVSS` ?
Result block: low polyreactivity
